Assay: Cytotoxicity assay
Format: cell-based
Details: human, HepG2 cells
Structures can show the parent of a compound that is named as a salt.
property_measured: viability at 24 h, 1 × MIC (%)

> print(dat)
                                   compound           property.measured  val
1  CN1CCN(CCCN2c3ccccc3Sc3ccc(Cl)cc32)CC1 [Prochlorperazine dimaleate]  viability at 24 h, 1 × MIC   86
2  CN(C)CCCN1c2ccccc2Sc2ccc(C(F)(F)F)cc21 [Triflupromazine hydrochloride]  viability at 24 h, 1 × MIC   63
3  CCOC(=O)C1=C(COCCN)NC(C)=C(C(=O)OC)C1c1ccccc1Cl (stereo not drawn) [Amlodipine besylate]  viability at 24 h, 1 × MIC   60
4  c1ccc2c(c1)Sc1ccccc1N2CC1CN2CCC1CC2 (stereo not drawn)  viability at 24 h, 1 × MIC   30
5  CN(C)CCCN1c2ccccc2Sc2ccc(Cl)cc21 [Chlorpromazine hydrochloride]  viability at 24 h, 1 × MIC   28
6  CN(C)C(=O)C(CCN1CCC(O)(c2ccc(Cl)cc2)CC1)(c1ccccc1)c1ccccc1 [Loperamide hydrochloride]  viability at 24 h, 1 × MIC   84

###

Target: S. aureus ATCC 43300 Sortase A (Staphylococcus aureus, UniProt Q2FV99)
Sequence (Q2FV99 60-206): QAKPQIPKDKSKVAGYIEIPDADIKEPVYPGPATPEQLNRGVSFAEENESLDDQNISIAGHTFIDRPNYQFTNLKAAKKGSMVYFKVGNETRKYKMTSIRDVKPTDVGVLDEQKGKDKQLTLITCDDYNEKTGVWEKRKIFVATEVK
Assay: Sortase A activity assay by FRET
Format: biochemical
Structures can show the parent of a compound that is named as a salt.
property_measured: inhibition at 128 µg/mL (%)

> print(dat)
                                   molecule                           subject.of.test  unit.tag  val
1  CCOC(=O)C1=C(COCCN)NC(C)=C(C(=O)OC)C1c1ccccc1Cl (stereo not shown) [Amlodipine besylate]  S. aureus ATCC 43300 Sortase A (Staphylococcus aureus, UniProt Q2FV99)         %   57
2  c1ccc2c(c1)Sc1ccccc1N2CC1CN2CCC1CC2 (stereo not shown) [Mequitazine]  S. aureus ATCC 43300 Sortase A (Staphylococcus aureus, UniProt Q2FV99)         %   64
3  CN(C)CCCN1c2ccccc2Sc2ccc(Cl)cc21 [Chlorpromazine hydrochloride]  S. aureus ATCC 43300 Sortase A (Staphylococcus aureus, UniProt Q2FV99)         %   49
4  CN(C)CCCN1c2ccccc2Sc2ccc(C(F)(F)F)cc21 [Triflupromazine hydrochloride]  S. aureus ATCC 43300 Sortase A (Staphylococcus aureus, UniProt Q2FV99)         %   48
